These data points were gathered from patent US8354398B2.

Record set of IC50 for target or system S1P1 (Homo sapiens).
Dear colleague, please return just the value in nM, with no unit written.

Field: example entries. Status: answers known.
[
  {
    "molecule": "CC(C)Cc1c(-c2nc(-c3ccc(CN4CC(C(=O)O)C4)cc3)no2)noc1-c1ccccc1",
    "IC50 / nM": 0.17
  },
  {
    "molecule": "O=C(O)C1CN(Cc2ccc(-c3noc(-c4noc(-c5ccccc5)c4-c4ccccc4)n3)c(C(F)(F)F)c2)C1",
    "IC50 / nM": 0.44
  },
  {
    "molecule": "CC(F)(F)c1c(-c2nc(-c3ccc(CN4CC(C(=O)O)C4)cc3)no2)noc1-c1ccccc1",
    "IC50 / nM": 0.14
  },
  {
    "molecule": "CCCc1c(-c2ccccc2)noc1-c1nc(-c2ccc(CN3CC(C(=O)O)C3)cc2)no1",
    "IC50 / nM": 0.13
  },
  {
    "molecule": "O=C(O)C1CN(Cc2ccc(-c3noc(-c4onc(-c5ccccc5)c4C(F)(F)F)n3)cc2F)C1",
    "IC50 / nM": 0.32
  },
  {
    "molecule": "O=C(O)C1CN(Cc2ccc(-c3noc(-c4noc(-c5ccccc5)c4-c4ccccc4)n3)cc2)C1",
    "IC50 / nM": 0.063
  }
]

Note: attention shifts to another entry.
So what IC50 did O=C(O)C1CN(Cc2ccc(-c3noc(-c4cc(-c5ccccc5)c(C(F)(F)F)s4)n3)cc2)C1 [Comp. A, reference compound] get with S1P1 (Homo sapiens)?
2.5

---

Catalogue of pEC50 values
target: UniProt:Q99500; test: Method A: Receptor [35S] GTPγS Binding Assay, membranes from EDG3-Ga15-bla HEK293T cells; assay type: biochemical; design: expressed in transfected cells; host or cells: EDG3-Ga15-bla HEK293T cells; details: EDG3-Ga15-bla HEK293T cell membranes
Sequence (Q99500 whole entry): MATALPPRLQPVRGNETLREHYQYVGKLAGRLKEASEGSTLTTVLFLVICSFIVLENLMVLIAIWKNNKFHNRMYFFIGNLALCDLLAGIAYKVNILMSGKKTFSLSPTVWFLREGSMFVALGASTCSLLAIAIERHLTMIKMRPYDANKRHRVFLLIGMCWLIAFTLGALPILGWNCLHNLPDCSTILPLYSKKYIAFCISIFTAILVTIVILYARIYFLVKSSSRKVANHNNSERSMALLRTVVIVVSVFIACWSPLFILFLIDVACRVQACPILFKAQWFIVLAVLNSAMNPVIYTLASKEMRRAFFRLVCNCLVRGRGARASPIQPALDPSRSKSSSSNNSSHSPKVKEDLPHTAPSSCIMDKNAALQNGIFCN
Structures can show the parent of a compound that is named as a salt.
Units for pEC50: none; it is -log10 of a concentration expressed in mol/L.

Known results for compounds:
[
  {
    "compound": "O=C(NCC(F)(F)F)c1c(-c2ccccc2)noc1-c1nc(-c2ccc(CN3CC(C(=O)O)C3)cc2)no1",
    "outcome_measure": "pEC50",
    "numeric_result": 5.29
  },
  {
    "compound": "O=C(O)C1CN(Cc2ccc(-c3noc(-c4noc(-c5ccccc5)c4CCC(F)(F)F)n3)cc2)C1",
    "outcome_measure": "pEC50",
    "numeric_result": 6.28
  },
  {
    "compound": "O=C(O)C1CN(Cc2ccc(-c3noc(-c4noc(-c5ccccc5)c4-c4ccccc4)n3)cc2)C1",
    "outcome_measure": "pEC50",
    "numeric_result": 7.70
  },
  {
    "compound": "O=C(O)C1CN(Cc2ccc(-c3noc(-c4noc(-c5ccccc5)c4-c4ccccc4)n3)c(C(F)(F)F)c2)C1",
    "outcome_measure": "pEC50",
    "numeric_result": 5.47
  },
  {
    "compound": "CCC(F)(F)c1c(-c2nc(-c3ccc(CN4CC(C(=O)O)C4)cc3)no2)noc1-c1ccccc1 [Example 10, trifluoroacetic acid salt]",
    "outcome_measure": "pEC50",
    "numeric_result": 6.72
  }
]

Given the entry O=C(O)C1CN(Cc2ccc(-c3noc(-c4onc(-c5ccccc5)c4C(F)(F)F)n3)c(Cl)c2)C1 , report its measured pEC50.
5.08

Look up pEC50: O=C(O)C1CN(Cc2ccc(-c3noc(-c4onc(-c5ccccc5)c4C(F)(F)F)n3)c(C(F)(F)F)c2)C1
4.51
